target: Δ49N-hChoKα (Homo sapiens, UniProt P35790); construct: cDNA fragment 362-1534, corresponding to aminoacids 50-457; GST (N, cleaved yes); Prescission Protease recognition site (N, cleaved yes); made in house; host or cells: Escherichia coli BL21pLysS (DE3); assay: Biochemical kinase inhibition assay (Kinase-Glo Luminescent Kinase Assay) on Δ49N-hChoKα; conditions: ATP 5 μM, choline 5 μM, 60 minutes at rt; read-out: IC50 ChoKα
Sequence (P35790 50-457, stated change not applied): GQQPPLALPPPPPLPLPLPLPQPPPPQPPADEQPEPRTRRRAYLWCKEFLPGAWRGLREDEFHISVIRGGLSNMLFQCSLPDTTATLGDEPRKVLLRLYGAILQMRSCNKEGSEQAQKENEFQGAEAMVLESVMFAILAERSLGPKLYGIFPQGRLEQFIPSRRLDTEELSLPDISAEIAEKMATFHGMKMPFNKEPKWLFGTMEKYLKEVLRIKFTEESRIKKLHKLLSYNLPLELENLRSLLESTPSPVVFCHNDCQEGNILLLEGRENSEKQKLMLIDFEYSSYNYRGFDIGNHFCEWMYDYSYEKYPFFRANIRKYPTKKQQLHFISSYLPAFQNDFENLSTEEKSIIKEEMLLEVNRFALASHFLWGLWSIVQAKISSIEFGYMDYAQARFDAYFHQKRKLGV
pIC50: −log10 of the molar value. Structures can show the parent of a compound that is named as a salt.
endpointLabel: pIC50

Cc1cccc(NC(=O)[C@H]2CC[C@@H](n3cnc4c(N)nc(Cl)nc43)CC2)c1; 6.55
NC(=O)CN1CCc2nc(NC(=O)[C@H]3CC[C@@H](n4cnc5c(N)nc(Cl)nc54)CC3)sc2C1; 7.59
Nc1nc(Cl)nc2c1ncn2[C@H]1CC[C@@H](C(=O)Nc2nc3cc(Cl)ccc3o2)CC1; 6.75
Nc1nc(Cl)nc2c1ncn2[C@H]1CC[C@@H](C(=O)Nc2nc3cc4c(cc3s2)OCO4)CC1; 7.37
CN1CCN(Cc2ccc(NC(=O)Cc3ccc(NC(=O)[C@H]4CC[C@@H](n5cnc6c(N)nc(Cl)nc65)CC4)cc3)cc2)CC1; 7.28

(I) Cc1csc(NC(=O)[C@H]2CC[C@@H](n3cnc4c(N)nc(-c5cccc(C(N)=O)c5)nc43)CC2)n1
(II) CN(C)c1ccc2nc(NC(=O)[C@H]3CC[C@@H](n4cnc5c(N)nc(Cl)nc54)CC3)sc2c1
Enquiry: I'm curious, which of these has a smaller pIC50 number: I or II ? Give the label of your selection.
Return: I

(a) Cc1cccc(NC(=O)[C@H]2CC[C@@H](n3cnc4c(N)nc(-c5ccncc5)nc43)CC2)c1
(b) Cc1csc(NC(=O)[C@H]2CC[C@@H](n3cnc4c(N)nc(-c5cccc(C(=O)Nc6ccc(CN7CCC(N(C)C)CC7)cc6)c5)nc43)CC2)n1 [cpd 85, bis-trifluoroacetate]
Enquiry: // which entry has the larger pIC50 value, a or b ? Give the label of your selection.
Return: b
(b: 7.96, a: 6.51)

(1) Cc1csc(NC(=O)[C@H]2CC[C@@H](n3cnc4c(N)nc(-c5ccncc5)nc43)CC2)n1
(2) Nc1nc(Cl)nc2c1ncn2[C@H]1CC[C@@H](C(=O)Nc2nc(CC(=O)N3CCC(N4CCCCC4)CC3)cs2)CC1
Enquiry: // which entry has the larger pIC50 value, 1 or 2 ? Give the label of your selection.
Return: 2
(2: 7.28, 1: 6.90)

(A) Nc1nc(Cl)nc2c1ncn2[C@H]1CC[C@@H](C(=O)Nc2nc3ccncc3s2)CC1 [cpd 138, hydrochloride]
(B) COc1cccc(NC(=O)[C@H]2CC[C@@H](n3cnc4c(N)nc(-c5ccc(C(=O)Nc6ccc(CN7CCC(N(C)C)CC7)cc6)cc5)nc43)CC2)c1
Enquiry: I'm curious, which of these has a smaller pIC50 number: A or B ? Give the label of your selection.
Return: A
